EXPERIMENTAL CONDITIONS: in methanol, 303.15 K
PARAMETER MEASURED: solubility (mole fraction)

• CCOC(=O)C1(c2ccccc2)CCN(CCC(C#N)(c2ccccc2)c2ccccc2)CC1 = 0.0105

* * *

EXPERIMENTAL CONDITIONS: in isopropanol, 308.15 K
PARAMETER MEASURED: solubility (mole fraction)

* CCOC(=O)C1(c2ccccc2)CCN(CCC(C#N)(c2ccccc2)c2ccccc2)CC1 | 0.000859

* * *

EXPERIMENTAL CONDITIONS: in water, 298.15 K
PARAMETER MEASURED: solubility (mole fraction)

• CCOC(=O)C1(c2ccccc2)CCN(CCC(C#N)(c2ccccc2)c2ccccc2)CC1 = 1.19e-05
